# Tested on: COLO 205 colon
# assay_explanation: NCI-60 one-dose screen, 48 h (100 = growth as untreated, 0 = no growth, -100 = all killed)
# applied_conditions: 10 µM unless noted
About 83,000 compounds went through this panel and 20% of them were active in at least one assay; those are over-represented in the sample as a whole. The source made the active and inactive calls. How the source made its calls: active means growth percent below 10; inactive means the rest.
Quick reference for growth among some compounds

{"compound": "CCOC(=O)CC1CSC(N/N=C(/C)c2cccc(C(F)(F)F)c2)=N1 (stereo not given)", "tested_system": "COLO 205 colon", "growth": "107% (inactive)"}
{"compound": "c1ccc(-c2nc(N3CCNCC3)c3oc(-c4ccccc4)nc3n2)cc1", "tested_system": "COLO 205 colon", "growth": "-39.7% (active)"}
{"compound": "COC(=O)[C@H]1Cc2c([nH]c3ccccc23)[C@H](c2ccc3c(c2)OCO3)N1", "tested_system": "COLO 205 colon", "growth": "118% (inactive)"}
{"compound": "Oc1cccc(-c2nc(-c3n[nH]c(=S)n3-c3ccccc3)cc3c2[nH]c2ccccc23)c1", "tested_system": "COLO 205 colon", "growth": "68% (inactive)"}
{"compound": "CC(C)=CC(=O)C1C(=O)c2ccccc2C1=O", "tested_system": "COLO 205 colon", "growth": "115% (inactive)"}
{"compound": "CC(CN)[C@@H]1CC[C@]2(CO)CC[C@]3(C)[C@H](CC[C@@H]4[C@@]5(C)CCC(NCCO)C(C)(C)[C@@H]5CC[C@]43C)[C@@H]12 (stereo not given in full)", "tested_system": "COLO 205 colon", "growth": "67.5% (inactive)"}
{"compound": "CCOC(=O)c1cnc2sc(-c3ccc(OC)cc3)nc2c1Cl", "tested_system": "COLO 205 colon", "growth": "123% (inactive)"}
{"compound": "O=C(O)c1cc2ccccc2s1", "tested_system": "COLO 205 colon", "growth": "113% (inactive)"}
{"compound": "CCCCCCCCOC(=O)c1c(C)[nH]c(/C=C2\\N=C(c3ccc[nH]3)C=C2OC)c1C", "tested_system": "COLO 205 colon", "growth": "-33.7% (active)"}
{"compound": "CCCCC#Cc1c(I)n(C2OC(CO[Si](C)(C)C(C)(C)C)C3OC(C)(C)OC32)c(=O)[nH]c1=O (stereo not given)", "tested_system": "COLO 205 colon", "growth": "-59.1% (active)"}
{"compound": "C=CCNc1nc(O)c(/C=C2\\C=Nc3ncccc32)s1", "tested_system": "COLO 205 colon", "growth": "-20.1% (active)"}
{"compound": "O=S(=O)(c1ccc(NCSc2nc3ccccc3s2)cc1)c1ccc(NCSc2nc3ccccc3s2)cc1", "tested_system": "COLO 205 colon", "growth": "97.1% (inactive)"}
{"compound": "CC(C)(C)c1ccc(C(=O)Nc2sc3c(c2C#N)CCC(=O)C3)cc1", "tested_system": "COLO 205 colon", "growth": "-61.8% (active)"}
{"compound": "CN1CCN(Cc2ccc(NC(=O)c3cncc(C#Cc4cnc(N)c5ccc(C#N)cc45)c3)cc2C(F)(F)F)CC1", "tested_system": "COLO 205 colon", "growth": "-71.9% (active)"}
{"compound": "OC1CSSC1Cn1cnc2c(Nc3ccc(F)c(Cl)c3)ncnc21 (stereo not given)", "tested_system": "COLO 205 colon", "growth": "111% (inactive)"}
{"compound": "COc1ccc(C(=O)/C=C/Nc2cc(-c3ccccc3)nn2-c2ccccc2)cc1", "tested_system": "COLO 205 colon", "growth": "110% (inactive)"}
{"compound": "CN1CC(c2ccccc2)C(C(=O)c2ccc(Br)cc2)C12C(=O)Nc1ccccc12 (stereo not given)", "tested_system": "COLO 205 colon", "growth": "112% (inactive)"}
{"compound": "C#CCOc1cccc(Nc2c(Cl)c(CCl)nc3ccc(Oc4ccccc4)cc23)c1", "tested_system": "COLO 205 colon", "growth": "83.2% (inactive)"}
{"compound": "COc1cc(/C=C/c2cc(/C=C/c3ccc(O)c(OC)c3)n(C(=O)Nc3ccc(C)cc3C)n2)ccc1O", "tested_system": "COLO 205 colon", "growth": "-65.6% (active)"}
{"compound": "CCc1ccc(Cc2cnc(NC(=O)c3cc(C)oc3C)s2)cc1", "tested_system": "COLO 205 colon", "growth": "48.6% (inactive)"}

This collection of values is drawn from PubChem BioAssay (NCI).
